# Measurement Target: T1, Human CD137 ECD (human)
# T1 construct: entry includes C-terminal His-tag and biotin acceptor peptide; also called human CD137 extracellular domain; 4-1BB
# T1 sequence (chain, as listed by the source limits assumed): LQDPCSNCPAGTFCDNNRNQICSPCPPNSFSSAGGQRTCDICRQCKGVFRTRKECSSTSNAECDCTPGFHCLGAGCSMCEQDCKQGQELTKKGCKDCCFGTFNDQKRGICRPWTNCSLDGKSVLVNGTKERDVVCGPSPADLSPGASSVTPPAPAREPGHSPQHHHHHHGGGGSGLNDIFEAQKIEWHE
# Protocol Notes: Biacore SPR, vs parent H183/L072
For each entry below, report its fold change of affinity value.
The response must be a number in fold with no trailing unit.

Ask | fold change of affinity lookup needed for H183/L072 VL S52D (antibody, name in Kabat numbering, V domains shown, Dual-Ig) VH: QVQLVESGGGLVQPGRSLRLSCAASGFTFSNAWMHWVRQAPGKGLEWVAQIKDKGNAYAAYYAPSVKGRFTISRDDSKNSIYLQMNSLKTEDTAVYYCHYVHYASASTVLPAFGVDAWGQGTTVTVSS VL: DIVMTQSPLSLPVTPGEPASISCQASQELVHMNRNTYLHWYQQKPGQAPRLLIYKVDNRFPGVPDRFSGSGSGTDFTLKISRVEAEDVGVYYCAQGTSVPFTFGQGTKLEIK , thanks.
Reply | 0.8

Ask | Next up: H183/L072 VL Q24W (antibody, name in Kabat numbering, V domains shown, Dual-Ig) VH: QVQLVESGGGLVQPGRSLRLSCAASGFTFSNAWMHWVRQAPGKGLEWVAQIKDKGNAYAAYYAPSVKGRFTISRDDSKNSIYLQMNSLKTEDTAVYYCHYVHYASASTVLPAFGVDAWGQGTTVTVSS VL: DIVMTQSPLSLPVTPGEPASISCWASQELVHMNRNTYLHWYQQKPGQAPRLLIYKVSNRFPGVPDRFSGSGSGTDFTLKISRVEAEDVGVYYCAQGTSVPFTFGQGTKLEIK
Reply | 1

Ask | Next up: H183/L072 VL P56L (antibody, name in Kabat numbering, V domains shown, Dual-Ig) VH: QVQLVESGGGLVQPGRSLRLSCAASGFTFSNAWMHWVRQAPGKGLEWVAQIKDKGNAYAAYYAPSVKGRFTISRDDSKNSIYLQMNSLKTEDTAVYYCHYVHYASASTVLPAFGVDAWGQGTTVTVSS VL: DIVMTQSPLSLPVTPGEPASISCQASQELVHMNRNTYLHWYQQKPGQAPRLLIYKVSNRFLGVPDRFSGSGSGTDFTLKISRVEAEDVGVYYCAQGTSVPFTFGQGTKLEIK
Reply | 0.1

These entries and their values trace back to patent US20210388087A1.
